Target: Human PDGFRβ, cytoplasmic domain (GST-PDGFRβ) (Homo sapiens)
Quantity kind: IC50

[
  {
    "Smiles text": "CCNc1ncc(C(=O)Nc2cccc([C@H](C)Nc3cnc4cn(CC)nc4n3)c2)s1",
    "Result": "300 to 1000 nM"
  },
  {
    "Smiles text": "Cc1cc(C(=O)Nc2cccc([C@H](C)Nc3cnc4cnn(C)c4n3)c2)cnc1C(C)C",
    "Result": "< 300 nM"
  },
  {
    "Smiles text": "C[C@H](Nc1cnc2[nH]cc(-c3cnn(C)c3)c2n1)c1cccc(NC(=O)c2ccc(C(F)(F)F)nc2)c1",
    "Result": "< 300 nM"
  }
]

----------
Molecular target: Human PDGFRβ, cytoplasmic domain (GST-PDGFRβ) (Homo sapiens, UniProt P09619)
Sequence (P09619 with tags, fused parts or gaps): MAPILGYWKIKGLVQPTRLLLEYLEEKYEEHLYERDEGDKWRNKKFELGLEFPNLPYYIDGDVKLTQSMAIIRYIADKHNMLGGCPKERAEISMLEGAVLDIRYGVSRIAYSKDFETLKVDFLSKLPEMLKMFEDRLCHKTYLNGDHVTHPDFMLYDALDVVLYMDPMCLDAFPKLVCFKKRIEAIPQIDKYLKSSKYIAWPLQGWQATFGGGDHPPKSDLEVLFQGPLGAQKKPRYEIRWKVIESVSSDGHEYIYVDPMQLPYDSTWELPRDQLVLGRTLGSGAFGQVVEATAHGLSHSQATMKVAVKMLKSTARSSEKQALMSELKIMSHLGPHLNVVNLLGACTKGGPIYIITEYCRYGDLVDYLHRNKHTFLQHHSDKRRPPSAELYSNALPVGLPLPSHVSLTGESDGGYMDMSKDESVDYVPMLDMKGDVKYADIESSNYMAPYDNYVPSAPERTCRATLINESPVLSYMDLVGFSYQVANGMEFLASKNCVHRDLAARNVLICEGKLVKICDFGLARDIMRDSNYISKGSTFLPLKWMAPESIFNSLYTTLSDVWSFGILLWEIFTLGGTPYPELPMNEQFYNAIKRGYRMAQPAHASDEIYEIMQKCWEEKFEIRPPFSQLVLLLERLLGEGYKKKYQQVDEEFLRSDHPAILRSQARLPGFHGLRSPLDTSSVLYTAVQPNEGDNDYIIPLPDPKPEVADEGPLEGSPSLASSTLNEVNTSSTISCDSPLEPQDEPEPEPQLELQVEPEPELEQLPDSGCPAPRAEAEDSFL
pIC50: −log10 of the molar value.
Attribute: pIC50
Quantity kind: pIC50

[
  {
    "Smiles text": "Cc1cncc(C(=O)Nc2cccc([C@H](C)Nc3cnn4ccc(-c5cnn(C)c5)cc34)c2)c1",
    "Test system": "Human PDGFRβ, cytoplasmic domain (GST-PDGFRβ) (Homo sapiens, UniProt P09619)",
    "Quantity kind": "pIC50",
    "Result": "≤ 6.00"
  },
  {
    "Smiles text": "CCn1cc2ncc(N[C@@H](C)c3cccc(NC(=O)c4ccc(CN5CCN(C)CC5)c(C(F)F)c4)c3)nc2n1",
    "Test system": "Human PDGFRβ, cytoplasmic domain (GST-PDGFRβ) (Homo sapiens, UniProt P09619)",
    "Quantity kind": "pIC50",
    "Result": "> 6.52"
  },
  {
    "Smiles text": "CCc1ccc(NC(=O)c2ccc(C(F)(F)F)nc2)cc1[C@H](C)Nc1cnc2cn(CC)nc2n1",
    "Test system": "Human PDGFRβ, cytoplasmic domain (GST-PDGFRβ) (Homo sapiens, UniProt P09619)",
    "Quantity kind": "pIC50",
    "Result": "≤ 6.00"
  },
  {
    "Smiles text": "CCNc1ncc(C(=O)Nc2cccc([C@H](C)Nc3cnc4cn(CC)nc4n3)c2)cc1C",
    "Test system": "Human PDGFRβ, cytoplasmic domain (GST-PDGFRβ) (Homo sapiens, UniProt P09619)",
    "Quantity kind": "pIC50",
    "Result": "6.00 to 6.52"
  },
  {
    "Smiles text": "CCn1cc2ncc(N[C@@H](C)c3cc(NC(=O)Cc4ccccc4F)ccc3C)nc2n1",
    "Test system": "Human PDGFRβ, cytoplasmic domain (GST-PDGFRβ) (Homo sapiens, UniProt P09619)",
    "Quantity kind": "pIC50",
    "Result": "> 6.52"
  },
  {
    "Smiles text": "Cc1cncc(C(=O)Nc2cccc([C@H](C)Nc3cncc4[nH]ncc34)c2)c1",
    "Test system": "Human PDGFRβ, cytoplasmic domain (GST-PDGFRβ) (Homo sapiens, UniProt P09619)",
    "Quantity kind": "pIC50",
    "Result": "≤ 6.00"
  },
  {
    "Smiles text": "C[C@H](Nc1cnc2cnn(C)c2n1)c1cccc(NC(=O)c2ccc(C(F)(F)F)nc2)c1",
    "Test system": "Human PDGFRβ, cytoplasmic domain (GST-PDGFRβ) (Homo sapiens, UniProt P09619)",
    "Quantity kind": "pIC50",
    "Result": "> 6.52"
  },
  {
    "Smiles text": "CCNc1ncc(C(=O)Nc2cccc([C@H](C)Nc3cnc4cnn(C)c4n3)c2)cc1C",
    "Test system": "Human PDGFRβ, cytoplasmic domain (GST-PDGFRβ) (Homo sapiens, UniProt P09619)",
    "Quantity kind": "pIC50",
    "Result": "> 6.52"
  },
  {
    "Smiles text": "CCn1cc2ncc(N[C@@H](C)c3cccc(NC(=O)Cc4cncc(F)c4)c3)nc2n1",
    "Test system": "Human PDGFRβ, cytoplasmic domain (GST-PDGFRβ) (Homo sapiens, UniProt P09619)",
    "Quantity kind": "pIC50",
    "Result": "≤ 6.00"
  },
  {
    "Smiles text": "CCn1cc2ncc(N[C@@H](C)c3cccc(NC(=O)c4ccc(CN5CCN(C)CC5)c(C)c4)c3)nc2n1",
    "Test system": "Human PDGFRβ, cytoplasmic domain (GST-PDGFRβ) (Homo sapiens, UniProt P09619)",
    "Quantity kind": "pIC50",
    "Result": "> 6.52"
  },
  {
    "Smiles text": "C[C@H](Nc1cnc2cnn(C)c2n1)c1cccc(NC(=O)c2cnc3ncn(C)c3c2)c1",
    "Test system": "Human PDGFRβ, cytoplasmic domain (GST-PDGFRβ) (Homo sapiens, UniProt P09619)",
    "Quantity kind": "pIC50",
    "Result": "6.00 to 6.52"
  },
  {
    "Smiles text": "Cc1cc(C(=O)Nc2cccc([C@H](C)Nc3cnc4cnn(C)c4n3)c2)cnc1C(F)F",
    "Test system": "Human PDGFRβ, cytoplasmic domain (GST-PDGFRβ) (Homo sapiens, UniProt P09619)",
    "Quantity kind": "pIC50",
    "Result": "> 6.52"
  },
  {
    "Smiles text": "CCn1cc2ncc(N[C@@H](C)c3cccc(NC(=O)c4cnc(Br)c(C)c4)c3)nc2n1",
    "Test system": "Human PDGFRβ, cytoplasmic domain (GST-PDGFRβ) (Homo sapiens, UniProt P09619)",
    "Quantity kind": "pIC50",
    "Result": "> 6.52"
  },
  {
    "Smiles text": "Cc1cncc(C(=O)Nc2cc(F)cc([C@H](C)Nc3cnc4cnn(C)c4n3)c2)c1",
    "Test system": "Human PDGFRβ, cytoplasmic domain (GST-PDGFRβ) (Homo sapiens, UniProt P09619)",
    "Quantity kind": "pIC50",
    "Result": "> 6.52"
  },
  {
    "Smiles text": "C[C@H](Nc1cnc2cnn(C)c2n1)c1cccc(NC(=O)c2cnc(C(F)(F)F)s2)c1",
    "Test system": "Human PDGFRβ, cytoplasmic domain (GST-PDGFRβ) (Homo sapiens, UniProt P09619)",
    "Quantity kind": "pIC50",
    "Result": "> 6.52"
  },
  {
    "Smiles text": "C[C@H](Nc1cnc2cn[nH]c2n1)c1cccc(NC(=O)c2cncc(C3CC3)c2)c1",
    "Test system": "Human PDGFRβ, cytoplasmic domain (GST-PDGFRβ) (Homo sapiens, UniProt P09619)",
    "Quantity kind": "pIC50",
    "Result": "> 6.52"
  },
  {
    "Smiles text": "CCn1cc2ncc(N[C@@H](C)c3cc(NC(=O)c4cnc5c(c4)CCCO5)ccc3F)nc2n1",
    "Test system": "Human PDGFRβ, cytoplasmic domain (GST-PDGFRβ) (Homo sapiens, UniProt P09619)",
    "Quantity kind": "pIC50",
    "Result": "> 6.52"
  },
  {
    "Smiles text": "C[C@H](Nc1cnc2cn[nH]c2n1)c1cccc(NC(=O)c2ccc(C(F)(F)F)nc2)c1",
    "Test system": "Human PDGFRβ, cytoplasmic domain (GST-PDGFRβ) (Homo sapiens, UniProt P09619)",
    "Quantity kind": "pIC50",
    "Result": "> 6.52"
  },
  {
    "Smiles text": "CCn1cc2ncc(N[C@@H](C)c3cccc(NC(=O)c4ccc(OC)c(F)c4)c3)nc2n1",
    "Test system": "Human PDGFRβ, cytoplasmic domain (GST-PDGFRβ) (Homo sapiens, UniProt P09619)",
    "Quantity kind": "pIC50",
    "Result": "> 6.52"
  },
  {
    "Smiles text": "C[C@H](Nc1cnc2cnn(C)c2n1)c1cccc(NC(=O)c2cncc(Br)c2)c1",
    "Test system": "Human PDGFRβ, cytoplasmic domain (GST-PDGFRβ) (Homo sapiens, UniProt P09619)",
    "Quantity kind": "pIC50",
    "Result": "> 6.52"
  },
  {
    "Smiles text": "Cc1cc2ncc(N[C@@H](C)c3cc(NC(=O)c4cnn(C5CCC5)c4)ccc3F)nc2s1",
    "Test system": "Human PDGFRβ, cytoplasmic domain (GST-PDGFRβ) (Homo sapiens, UniProt P09619)",
    "Quantity kind": "pIC50",
    "Result": "> 6.52"
  },
  {
    "Smiles text": "CCn1cc2ncc(N[C@@H](C)c3cccc(NC(=O)c4cnc(CN5CC6(COC6)C5)c(Cl)c4)c3)nc2n1",
    "Test system": "Human PDGFRβ, cytoplasmic domain (GST-PDGFRβ) (Homo sapiens, UniProt P09619)",
    "Quantity kind": "pIC50",
    "Result": "6.00 to 6.52"
  },
  {
    "Smiles text": "CCn1cc2ncc(N[C@@H](C)c3cccc(NC(=O)Cc4ccc5c(n4)CCC5)c3)nc2n1",
    "Test system": "Human PDGFRβ, cytoplasmic domain (GST-PDGFRβ) (Homo sapiens, UniProt P09619)",
    "Quantity kind": "pIC50",
    "Result": "≤ 6.00"
  },
  {
    "Smiles text": "CCn1cc2ncc(N[C@@H](C)c3cc(NC(=O)c4cnc(N5CCN(C)CC5)c(Cl)c4)ccc3F)nc2n1",
    "Test system": "Human PDGFRβ, cytoplasmic domain (GST-PDGFRβ) (Homo sapiens, UniProt P09619)",
    "Quantity kind": "pIC50",
    "Result": "> 6.52"
  }
]

Source of measurements: patent US20230102554A1
